Every entry's value here was drawn from patent US8779129B2.

Result Type: melting point (°C)

- COC(=O)c1nn(-c2cccc(NC(C)=O)c2)c(=O)n(Cc2ccc(Cl)cc2)c1=O: 193

a = CC(=O)Nc1cccc(-n2nc(C#N)c(=O)n(Cc3ccc(Cl)cc3)c2=O)c1
b = COCc1nn(-c2cccc(NC(C)=O)c2)c(=O)n(Cc2ccc(Cl)cc2)c1=O
**Q:** Would you kindly point out which of a and b has the smaller melting point figure? To answer, give the label that identifies your chosen option.
**A:** b
(b: 97 °C, a: 196 °C)

* * *

Result Type: melting point (°C)

- CC(=O)Nc1cccc(-n2nc(C)c(=O)n(Cc3ccc(Cl)cc3)c2=O)c1: 168
- CC(=O)Nc1cccc(-n2ncc(=O)n(Cc3ccc(Cl)cc3F)c2=O)c1: 184
- CC(=O)Nc1cccc(-n2nc(C(=O)OC(C)C)c(=O)n(Cc3ccc(Cl)cc3)c2=O)c1: 183

* * *

Result Type: melting point (°C)

* COc1nn(-c2cccc(N(C)C(C)=O)c2)c(=O)n(Cc2ccc(Cl)cc2)c1=O | 157
* CC(=O)Nc1cccc(-n2nc(CN(C)C)c(=O)n(Cc3ccc(Cl)cc3)c2=O)c1.Cl | 143
* CC(=O)Nc1cccc(-n2nc(C(C)C)c(=O)n(Cc3ccc(Cl)cc3)c2=O)c1 | 178

* * *

Quick reference: melting point of the listed items.

Consider the following illustrative entries.
* CC(=O)Nc1cccc(-n2ncc(=O)n(Cc3ccc(Cl)cc3)c2=O)c1 [2.01] | 171 to 172 °C
* CC(=O)Nc1cccc(-n2nc(N(C)C)c(=O)n(Cc3ccc(Cl)cc3)c2=O)c1 [5.13] | 189 to 190 °C
* COc1nn(-c2ccccc2O)c(=O)n(Cc2ccc(Cl)cc2)c1=O [4.143] | 164 to 165 °C
* COCC(=O)Nc1cccc(-n2nc(OC)c(=O)n(Cc3ccc(Cl)cc3)c2=O)c1 [4.141] | 143 °C

**Q:** Quick check: melting point of COc1nn(-c2cccc(NC(C)=O)c2)c(=O)n(Cc2ccc(Cl)cc2)c1=O [4.01] ?
**A:** 190 to 191 °C

**Q:** Quick one: melting point of COc1nn(-c2cccc(NC(C)=O)c2)c(=O)n(Cc2ccc3c(c2)OC(F)(F)O3)c1=O [4.127] ?
**A:** 184 °C
